Assay: Caco-2 cell permeability
Format: in vitro ADME
Conditions: human, Caco-2, pH 7.4
OUTCOME_MEASURE: Papp B→A at 120 min (×10⁻⁶ cm/s)
The answer is to be given in ×10⁻⁶ cm/s; state only the numeric part.

Q: Fill in the blank: the reported Papp B→A at 120 min of "COC(=O)c1ccccc1-c1c2ccc(=N)cc-2oc2cc(N)ccc12" is ____.
Ans: 12

====

Let's look at some compounds and their measured AUC(0-inf).
Assay: Pharmacokinetics and urinary/faecal recovery after oral administration in rats
Format: in vivo, Sprague Dawley rats
Conditions: male, Sprague Dawley, rat, plasma, po, 30 mg/kg
The answer is to be given in µM·h; state only the numeric part.

[[record]]
compound = "C[N+](C)(C)CCc1ccc(Oc2ccc(-c3noc(-c4ccc(O)cc4)n3)cc2)cc1.[I-] [26a]"
result = 0.28


Then there is this compound:
Q: Fill in the blank: the reported AUC(0-inf) of Cl.NCCc1ccc(Oc2ccc(-c3noc(-c4ccc(O)cc4)n3)cc2)cc1 [15e] is ____.
Ans: 0.9
